Taken from ChEMBL document CHEMBL3797190.

experiment: Aqueous solubility of compound in water with 0.01 to 1% DMSO at 2 to 200 uM by HPLC analysis; assay type: physicochemical
Measured solubility kinetic by item
Hi! Could you send only the number? It should be in µM, unit omitted.

ENTRY_SMILES: Cc1ccc(-c2nnc(SCc3cc([N+](=O)[O-])cc([N+](=O)[O-])c3)o2)cc1
OUTPUT_UNIT: µM
solubility kinetic: 0.5

# molecule O=[N+]([O-])c1cc(CSc2nnc(-c3ccc(Cl)cc3)s2)cc([N+](=O)[O-])c1 ; its solubility kinetic = 0.54

###

tested on: Candida albicans; assay: Antifungal activity against Candida albicans ATCC 44859 after 24 to 48 hrs by broth microdilution method; format: functional
READOUT_NAME: MIC80

# example entries with known answers
ENTRY_SMILES: COc1ccc(-c2nnc(SCc3cc([N+](=O)[O-])cc([N+](=O)[O-])c3)s2)cc1
MIC80: > 125 µM

ENTRY_SMILES: O=[N+]([O-])c1cc(CSc2nnc(-c3ccccc3)o2)cc([N+](=O)[O-])c1
MIC80: > 125 µM

Summary for this molecule, COc1cccc(-c2nnc(SCc3cc([N+](=O)[O-])cc([N+](=O)[O-])c3)o2)c1 : MIC80 is > 125 µM

###

assay: Cytotoxicity against human HeLa cells assessed as cell viability at 20 uM after 48 hrs by MTS assay; type: cell-based; conditions: read-out: Activity
Listed compounds paired with reported viability at 48 h, 20 µM
Give just the number in %; leave the unit off.

ENTRY_SMILES: CO[C@H]1/C=C/O[C@@]2(C)Oc3c(C)c(O)c4c(O)c(c(/C=N/N5CCN(C)CC5)c(O)c4c3C2=O)NC(=O)/C(C)=C\C=C\[C@H](C)[C@H](O)[C@@H](C)[C@@H](O)[C@@H](C)[C@H](OC(C)=O)[C@@H]1C
OUTPUT_UNIT: %
viability at 48 h, 20 µM: 100

Memo: O=[N+]([O-])c1cc(CSc2nnc(-c3ccc(Cl)cc3Cl)o2)cc([N+](=O)[O-])c1 , reported viability at 48 h, 20 µM: 39.9

The reported value for COc1ccc(-c2nnc(SCc3cc([N+](=O)[O-])cc([N+](=O)[O-])c3)s2)cc1 in terms of viability at 48 h, 20 µM is 27.1

Sure, the documented viability at 48 h, 20 µM for O=[N+]([O-])c1ccc(CSc2nnc(-c3ccccc3)o2)c([N+](=O)[O-])c1 is 113

###

assay: Cytotoxicity against MDCK2-MDR1 cells assessed as cell viability after 48 hrs by MTS assay; format: ADME, cell-based; conditions: Canis lupus familiaris, MDCK-II
READOUT_NAME: IC50

Some solved entries appear below for comparison.
ENTRY_SMILES: COc1ccc(-c2nnc(SCc3cc([N+](=O)[O-])cc([N+](=O)[O-])c3)s2)cc1
RESULT: > 20 µM
//
ENTRY_SMILES: CO[C@H]1/C=C/O[C@@]2(C)Oc3c(C)c(O)c4c(O)c(c(/C=N/N5CCN(C)CC5)c(O)c4c3C2=O)NC(=O)/C(C)=C\C=C\[C@H](C)[C@H](O)[C@@H](C)[C@@H](O)[C@@H](C)[C@H](OC(C)=O)[C@@H]1C
RESULT: > 20 µM
//
ENTRY_SMILES: O=[N+]([O-])c1cc(CSc2nnc(-c3ccc(Cl)cc3)s2)cc([N+](=O)[O-])c1
RESULT: > 20 µM

O=[N+]([O-])c1cc(CSc2nnc(-c3ccccc3)s2)cc([N+](=O)[O-])c1 has a reported IC50 of 3.1 µM

###

assay: Cytotoxicity against human HeLa cells assessed as cell viability at 20 uM after 24 hrs by MTS assay; format: cell-based; conditions: read-out: Activity
Overview of reported viability at 24 h, 20 µM across a group of compounds:
The answer consists of two parts: a number and, after it, its unit.

ENTRY_SMILES: O=[N+]([O-])c1cc(CSc2nnc(-c3ccc(Cl)cc3Cl)o2)cc([N+](=O)[O-])c1
viability at 24 h, 20 µM: 76.4%

ENTRY_SMILES: COc1ccc(-c2nnc(SCc3cc([N+](=O)[O-])cc([N+](=O)[O-])c3)o2)cc1
viability at 24 h, 20 µM: 83.9%

ENTRY_SMILES: COc1ccc(-c2nnc(SCc3ccc([N+](=O)[O-])cc3[N+](=O)[O-])o2)cc1
viability at 24 h, 20 µM: 89.9%

ENTRY_SMILES: O=[N+]([O-])c1cc(CSc2nnc(-c3ccc(Cl)cc3)s2)cc([N+](=O)[O-])c1
viability at 24 h, 20 µM: 92.8%

ENTRY_SMILES: COc1cccc(-c2nnc(SCc3cc([N+](=O)[O-])cc([N+](=O)[O-])c3)s2)c1
viability at 24 h, 20 µM: 71.2%

O=[N+]([O-])c1cc(CSc2nnc(-c3ccccc3)o2)cc([N+](=O)[O-])c1 has a reported viability at 24 h, 20 µM of 88.3%

The reported value for O=[N+]([O-])c1cc(CSc2nnc(-c3cccc(Cl)c3)o2)cc([N+](=O)[O-])c1 in terms of viability at 24 h, 20 µM is 81.9%

Lookup result for O=[N+]([O-])c1cc(CSc2nnc(-c3ccccc3)s2)cc([N+](=O)[O-])c1 ; measured viability at 24 h, 20 µM: 78.5%

The compound identified as COc1ccc(-c2nnc(SCc3cc([N+](=O)[O-])cc([N+](=O)[O-])c3)s2)cc1 registered its viability at 24 h, 20 µM at 88%

// viability at 24 h, 20 µM lookup, compound = Cc1ccc(-c2nnc(SCc3cc([N+](=O)[O-])cc([N+](=O)[O-])c3)o2)cc1 , result: 87.2%

Given item O=[N+]([O-])c1cc(CSc2nnc(-c3cccc(Cl)c3)s2)cc([N+](=O)[O-])c1 , the value recorded as its viability at 24 h, 20 µM is 78.6%

Notebook: O=[N+]([O-])c1ccc(CSc2nnc(-c3ccccc3)o2)c([N+](=O)[O-])c1 , viability at 24 h, 20 µM read as 97.7%

Lab note: measured viability at 24 h, 20 µM of COc1cccc(-c2nnc(SCc3cc([N+](=O)[O-])cc([N+](=O)[O-])c3)o2)c1 was 74.2%

For reference, reported viability at 24 h, 20 µM for CO[C@H]1/C=C/O[C@@]2(C)Oc3c(C)c(O)c4c(O)c(c(/C=N/N5CCN(C)CC5)c(O)c4c3C2=O)NC(=O)/C(C)=C\C=C\[C@H](C)[C@H](O)[C@@H](C)[C@@H](O)[C@@H](C)[C@H](OC(C)=O)[C@@H]1C stands at 102%

###

assay: Cytotoxicity against MDCK2-MDR1 cells assessed as cell viability after 48 hrs by MTS assay; type: ADME, cell-based; conditions: Canis lupus familiaris, MDCK-II
READOUT_NAME: pIC50
# pIC50 = -log10(concentration in molar units)

ENTRY_SMILES: COc1ccc(-c2nnc(SCc3cc([N+](=O)[O-])cc([N+](=O)[O-])c3)o2)cc1
pIC50: 4.97

In the following, a different compound is considered.
Memo: COc1cccc(-c2nnc(SCc3cc([N+](=O)[O-])cc([N+](=O)[O-])c3)s2)c1 , reported pIC50: 5.19

###

system: Mycobacterium avium; test: Antimycobacterial activity against Mycobacterium avium CNCTC My 330/88 after 14 days by microdilution method; type: functional; conditions: CNCTC My 330/88, 336 h
READOUT_NAME: MIC99

The examples below pair each entry with its known result.
ENTRY_SMILES: COc1cc(OC)cc(-c2nnc(SCc3cc([N+](=O)[O-])cc([N+](=O)[O-])c3)o2)c1
RESULT: 16 µM
--
ENTRY_SMILES: O=[N+]([O-])c1cc(CSc2nnc(-c3ccncc3)o2)cc([N+](=O)[O-])c1
RESULT: 62 µM

GET /value?item= O=[N+]([O-])c1ccc(-c2nnc(SCc3cc([N+](=O)[O-])cc(C(F)(F)F)c3)s2)cc1 &field=MIC99 returns > 500 µM

// sample Nc1cc(CSc2nnc(-c3ccc([N+](=O)[O-])cc3)s2)cc([N+](=O)[O-])c1 , its MIC99 was 250 µM

Value of measured MIC99 for the entry O=[N+]([O-])c1ccc(CSc2nnc(-c3ccncc3)o2)c([N+](=O)[O-])c1 : 62 µM

In plain terms, O=[N+]([O-])c1cc(CSc2nnc(-c3ccc(Cl)cc3Cl)o2)cc([N+](=O)[O-])c1 has a documented MIC99 of 16 µM

Kindly note the recorded MIC99 for O=[N+]([O-])c1cc(CSc2nnc(-c3ccc(Cl)cc3)s2)cc(C(F)(F)F)c1 , which is > 500 µM

Briefly, MIC99 measured for O=[N+]([O-])c1cc(CSc2nnc(-c3ccc(O)cc3)o2)cc([N+](=O)[O-])c1 : 62 µM

Input Cc1nnc(SCc2cc([N+](=O)[O-])cc([N+](=O)[O-])c2)s1 . Output MIC99: 125 µM

Just so you know, measured MIC99 for COc1cccc(-c2nnc(SCc3cc([N+](=O)[O-])cc([N+](=O)[O-])c3)s2)c1 came out at 8 µM

Item: COc1cccc(-c2nnc(SCc3cc([N+](=O)[O-])cc([N+](=O)[O-])c3)o2)c1 | MIC99: 16 µM

Field MIC99 (entry O=[N+]([O-])c1cc(CSc2nnc(-c3ccccc3Cl)o2)cc([N+](=O)[O-])c1 ) reads 16 µM

Cc1ccc(-c2nnc(SCc3cc([N+](=O)[O-])cc(C(F)(F)F)c3)s2)cc1 has a reported MIC99 of > 500 µM
